Data origin, for the record: patent US20260234159A1

# ASSAY_METHOD_TEXT: In vivo toxicological study in rats: haematology
# Design: species or system rats of the Wistar strain
# CONDITION_DESCRIPTION: female, 30 mg/kg oral daily 7 d
ASSAY_READOUT: HGB (g/dL)
Report as a plain number; the unit g/dL is understood.

Challenge: Report HGB for "COc1ccc(C(=O)Nc2sc3c(c2C#N)CCCCC3)cc1OC" please.
Response given: 14.2

Next:
Challenge: Record request: HGB value, item "N#Cc1c(NC(=O)c2cccc3ccccc23)sc2c1CCN(C(=O)Nc1ccccc1OC(F)(F)F)C2"
Response given: 14.4

Challenge: Dear colleague, I am looking for the recorded HGB of the following compound: "N#Cc1c(NC(=O)c2cccc3ccccc23)sc2c1CCN(CC(=O)Nc1cccc(Br)c1)C2"
Response given: 15.3

Challenge: Which HGB value is on record for "COc1ccccc1NC(=O)N1CCc2c(sc(NC(=O)c3cccc4ccccc34)c2C#N)C1" ?
Response given: 14.1

###

Here the recorded RBC is given for each entry.
# ASSAY_METHOD_TEXT: In vivo toxicological study in rats: haematology
# Set-up: species or system rats of the Wistar strain
# CONDITION_DESCRIPTION: female, 30 mg/kg oral daily 7 d

// below: answered molecules
Challenge: Fill blank: measured RBC of the molecule COc1ccc(C(=O)Nc2sc3c(c2C#N)CCCCC3)cc1OC [PKL-A135] is ____.
Response given: 7.26 10^12/l

Challenge: RBC lookup needed for N#Cc1c(NC(=O)c2cccc3ccccc23)sc2c1CCN(C(=O)Nc1ccccc1OC(F)(F)F)C2 [PKL-A159] , thanks.
Response given: 7.39 10^12/l

Challenge: Can you look up the measured RBC of COc1ccccc1NC(=O)N1CCc2c(sc(NC(=O)c3cccc4ccccc34)c2C#N)C1 [PKL-A152] for me?
Response given: 7.24 10^12/l

***
Challenge: Look at this molecule and give its reported RBC. N#Cc1c(NC(=O)c2cccc3ccccc23)sc2c1CCN(CC(=O)Nc1cccc(Br)c1)C2 [PKL-B171]
Response given: 8.08 10^12/l

###

# ASSAY_METHOD_TEXT: In vivo toxicological study in rats: haematology
# Design: species or system rats of the Wistar strain
# CONDITION_DESCRIPTION: female, 300 mg/kg oral daily 7 d
# reported MCV; entries follow
Give the quantity in fL, number only.

Examples with their reported MCV follow.
Challenge: // returns reported MCV for input "COc1ccc(C(=O)Nc2sc3c(c2C#N)CCCCC3)cc1OC"
Response given: 60.8

Challenge: What value of measured MCV is listed for "N#Cc1c(NC(=O)c2cccc3ccccc23)sc2c1CCN(CC(=O)Nc1cccc(Br)c1)C2" ?
Response given: 53.5

Challenge: Which MCV reading was recorded for the compound "N#Cc1c(NC(=O)c2cccc3ccccc23)sc2c1CCN(C(=O)Nc1ccccc1OC(F)(F)F)C2" ?
Response given: 55.2

Attention now shifts to the item below.
Challenge: # input compound: "COc1ccccc1NC(=O)N1CCc2c(sc(NC(=O)c3cccc4ccccc34)c2C#N)C1" ; wanted: its MCV
Response given: 57.7

###

Form field: MONO (one value per entry).
# ASSAY_METHOD_TEXT: In vivo toxicological study in rats: haematology
# Set-up: species or system rats of the Wistar strain
# CONDITION_DESCRIPTION: male, 30 mg/kg oral daily 7 d

Reference set (3 entries):
Challenge: # get_value(readout='MONO', item= "N#Cc1c(NC(=O)c2cccc3ccccc23)sc2c1CCN(C(=O)Nc1ccccc1OC(F)(F)F)C2" )
Response given: 0.10 10^9/l

Challenge: If you can, please state the reported MONO value of "COc1ccccc1NC(=O)N1CCc2c(sc(NC(=O)c3cccc4ccccc34)c2C#N)C1" .
Response given: 0.23 10^9/l

Challenge: I would be grateful if you could share the reported MONO for "N#Cc1c(NC(=O)c2cccc3ccccc23)sc2c1CCN(CC(=O)Nc1cccc(Br)c1)C2" .
Response given: 0.17 10^9/l

Next:
Challenge: Give its MONO value. Item: "COc1ccc(C(=O)Nc2sc3c(c2C#N)CCCCC3)cc1OC"
Response given: 0.30 10^9/l

###

# ASSAY_METHOD_TEXT: In vivo toxicological study in rats: haematology
# Parameters: species or system rats of the Wistar strain
# CONDITION_DESCRIPTION: female, 30 mg/kg oral daily 7 d
# maps each entry to its MCV
// return numeric value only (unit: fL, not printed)

Recorded MCV, per entry:
Challenge: # lookup: MCV of "COc1ccc(C(=O)Nc2sc3c(c2C#N)CCCCC3)cc1OC"
Response given: 57.4

Challenge: Form field: reported MCV of "N#Cc1c(NC(=O)c2cccc3ccccc23)sc2c1CCN(C(=O)Nc1ccccc1OC(F)(F)F)C2"
Response given: 54.5

Challenge: Given the entry "COc1ccccc1NC(=O)N1CCc2c(sc(NC(=O)c3cccc4ccccc34)c2C#N)C1" , report its measured MCV.
Response given: 57.2

Please turn your attention to the following entry.
Challenge: Dear colleague, I am looking for the recorded MCV of the following compound: "N#Cc1c(NC(=O)c2cccc3ccccc23)sc2c1CCN(CC(=O)Nc1cccc(Br)c1)C2"
Response given: 53.3

###

# ASSAY_METHOD_TEXT: In vivo toxicological study in rats: haematology
# Set-up: species or system rats of the Wistar strain
# CONDITION_DESCRIPTION: male, 300 mg/kg oral daily 7 d
Attribute: MCV
Just so you know, I need the unit written after the number.

// known answers, use as guide
Challenge: Please look up its MCV: N#Cc1c(NC(=O)c2cccc3ccccc23)sc2c1CCN(CC(=O)Nc1cccc(Br)c1)C2 [PKL-B171]
Response given: 55.4 fL

Challenge: Can you look up the measured MCV of COc1ccccc1NC(=O)N1CCc2c(sc(NC(=O)c3cccc4ccccc34)c2C#N)C1 [PKL-A152] for me?
Response given: 58.4 fL

Challenge: Bench note: what MCV did N#Cc1c(NC(=O)c2cccc3ccccc23)sc2c1CCN(C(=O)Nc1ccccc1OC(F)(F)F)C2 [PKL-A159] show?
Response given: 55.8 fL

Continuing:
Challenge: Any idea what its MCV is? The compound is COc1ccc(C(=O)Nc2sc3c(c2C#N)CCCCC3)cc1OC [PKL-A135]
Response given: 60.9 fL

###

# ASSAY_METHOD_TEXT: In vivo toxicological study in rats: haematology
# Set-up: species or system rats of the Wistar strain
# CONDITION_DESCRIPTION: female, 300 mg/kg oral daily 7 d
ASSAY_READOUT: PLT

Example results:
Challenge: Fill in: PLT of COc1ccccc1NC(=O)N1CCc2c(sc(NC(=O)c3cccc4ccccc34)c2C#N)C1 [PKL-A152] is ___
Response given: 1062 10^9/l

Challenge: What PLT value was documented for this compound, COc1ccc(C(=O)Nc2sc3c(c2C#N)CCCCC3)cc1OC [PKL-A135] ?
Response given: 1011 10^9/l

Others:
Challenge: Endpoint output: PLT of N#Cc1c(NC(=O)c2cccc3ccccc23)sc2c1CCN(CC(=O)Nc1cccc(Br)c1)C2 [PKL-B171] . Value?
Response given: 1027 10^9/l

Challenge: Entry N#Cc1c(NC(=O)c2cccc3ccccc23)sc2c1CCN(C(=O)Nc1ccccc1OC(F)(F)F)C2 [PKL-A159] has what PLT?
Response given: 808 10^9/l

###

# ASSAY_METHOD_TEXT: MTT cell viability / IC50 in growth media
# Assay type: cell-based, human
# CONDITION_DESCRIPTION: human, HepG2 cells; 10 μM, treatment for 2 days
ASSAY_READOUT: viability at 2 days, 10 µM (%)
Give just the numeric value; % need not be written.

Guide cases for viability at 2 days, 10 µM, answers given:
Challenge: I'd like to know its viability at 2 days, 10 µM. The compound in question is N#Cc1c(NC(=O)c2cccc3ccccc23)sc2c1CCN(CC(=O)Nc1cccc(Br)c1)C2 [PKL-B171]
Response given: 67.4

Challenge: Entry CNC(=O)c1cc(Oc2ccc(NC(=O)Nc3ccc(Cl)c(C(F)(F)F)c3)c(F)c2)ccn1 [Regorafenib, regorafenib, reference compound] has what viability at 2 days, 10 µM?
Response given: 41.1

Continuing:
Challenge: # viability at 2 days, 10 µM lookup, item N#Cc1c(NC(=O)c2cccc3ccccc23)sc2c1CCN(C(=O)Nc1ccccc1C(F)(F)F)C2 [PKL-A158]
Response given: 51.9

Challenge: Data request, read-out viability at 2 days, 10 µM, for N#Cc1c(NC(=O)c2cccc3ccccc23)sc2c1CCN(C(=O)Nc1ccccc1OC(F)(F)F)C2 [PKL-A159]
Response given: 61.6

Challenge: Fill in the blank: the reported viability at 2 days, 10 µM of CNC(=O)c1cc(Oc2ccc(NC(=O)Nc3ccc(Cl)c(C(F)(F)F)c3)cc2)ccn1 [Sorafenib, sorafenib, reference compound] is ____.
Response given: 51

Challenge: For the compound N#Cc1c(NC(=O)c2cccc3ccccc23)sc2c1CCN(CC(=O)Nc1ccnc(Cl)n1)C2 [PKL-B172] , what viability at 2 days, 10 µM is on record?
Response given: 62.7

Challenge: Param item = N#Cc1c(NC(=O)c2cccc3ccccc23)sc2c1CCCC2 [JNK-IN-5A] ; retrieve measured viability at 2 days, 10 µM.
Response given: 59.7

Challenge: Need viability at 2 days, 10 µM, item N#Cc1c(NC(=O)c2cccc3ccccc23)sc2c1CCN(C(=O)Nc1ccccc1Cl)C2 [PKL-A156]
Response given: 53.7

Challenge: Could you share which viability at 2 days, 10 µM value was measured for COc1ccc(C(=O)Nc2sc3c(c2C#N)CCCCC3)cc1OC [PKL-A135] ?
Response given: 43.1
